Tested on: U251 human glioblastoma cell line
Measurement Description: in vitro FM-HCR assay of MGMT activity (mPlum O^6MeG reporter plasmid)
Type: cell-based
Reported Conditions: DMSO condition; relative to wild-type MGMT in same condition
Observation Type: MGMT activity (% of WT) DMSO

| Molecule | MGMT activity (% of WT) DMSO |
| --- | --- |
| L33K: MGMT polypeptide with mutation L33K (protein) MDKDCEMKRTTLDSPLGKLELSGCEQGLHEIKKLGKGTSAADAVEVPAPAAVLGGPEPLMQCTAWLNAYFHQPEAIEEFPVPALHHPVFQQESFTRQVLWKLLKVVKFGEVISYQQLAALAGNPKAARAVGGAMRGNPVPILIPCHRVVCSSGAVGNYSGGLAVKEWLLAHEGHRLGKPGLGGSSGLAGAWLKGAGATSGSPPAGRN | 115.6 % of WT |
| wild-type MGMT: reference MGMT polypeptide according to SEQ ID NO: 1 (GenBank NP_002403.3); used as control (protein, REGION 1..207: note = Wild Type MGMT, used as control) MDKDCEMKRTTLDSPLGKLELSGCEQGLHEIKLLGKGTSAADAVEVPAPAAVLGGPEPLMQCTAWLNAYFHQPEAIEEFPVPALHHPVFQQESFTRQVLWKLLKVVKFGEVISYQQLAALAGNPKAARAVGGAMRGNPVPILIPCHRVVCSSGAVGNYSGGLAVKEWLLAHEGHRLGKPGLGGSSGLAGAWLKGAGATSGSPPAGRN | 100.0 % of WT |
| P140H: MGMT polypeptide with mutation P140H (protein) MDKDCEMKRTTLDSPLGKLELSGCEQGLHEIKLLGKGTSAADAVEVPAPAAVLGGPEPLMQCTAWLNAYFHQPEAIEEFPVPALHHPVFQQESFTRQVLWKLLKVVKFGEVISYQQLAALAGNPKAARAVGGAMRGNPVHILIPCHRVVCSSGAVGNYSGGLAVKEWLLAHEGHRLGKPGLGGSSGLAGAWLKGAGATSGSPPAGRN | 118.1 % of WT |
| G156V: MGMT polypeptide with mutation G156V (protein) MDKDCEMKRTTLDSPLGKLELSGCEQGLHEIKLLGKGTSAADAVEVPAPAAVLGGPEPLMQCTAWLNAYFHQPEAIEEFPVPALHHPVFQQESFTRQVLWKLLKVVKFGEVISYQQLAALAGNPKAARAVGGAMRGNPVPILIPCHRVVCSSGAVVNYSGGLAVKEWLLAHEGHRLGKPGLGGSSGLAGAWLKGAGATSGSPPAGRN | 50.3 % of WT |

Now for a further molecule.
# get_value(readout='MGMT activity (% of WT) DMSO', item= L33R: MGMT polypeptide with mutation L33R (protein) MDKDCEMKRTTLDSPLGKLELSGCEQGLHEIKRLGKGTSAADAVEVPAPAAVLGGPEPLMQCTAWLNAYFHQPEAIEEFPVPALHHPVFQQESFTRQVLWKLLKVVKFGEVISYQQLAALAGNPKAARAVGGAMRGNPVPILIPCHRVVCSSGAVGNYSGGLAVKEWLLAHEGHRLGKPGLGGSSGLAGAWLKGAGATSGSPPAGRN )
123.3 % of WT

Values from patent US20250135039A1
